Values from BigSolDB 2.1

# experimentalSetup: in isobutanol, 313.85 K
endpointName: solubility (mole fraction)

molecularString: C[C@@H]1CC[C@@]2(OC1)O[C@H]1C[C@H]3[C@@H]4CC=C5C[C@@H](O)CC[C@]5(C)[C@H]4CC[C@]3(C)[C@H]1[C@@H]2C
endpointName: solubility (mole fraction)
reportedMeasurement: 0.00499

---

# experimentalSetup: in tert-butanol, 312.15 K

molecularString: C[C@@H]1CC[C@@]2(OC1)O[C@H]1C[C@H]3[C@@H]4CC=C5C[C@@H](O)CC[C@]5(C)[C@H]4CC[C@]3(C)[C@H]1[C@@H]2C
solubility (mole fraction): 0.00198

---

# experimentalSetup: in n-pentanol, 314.45 K

molecularString: C[C@@H]1CC[C@@]2(OC1)O[C@H]1C[C@H]3[C@@H]4CC=C5C[C@@H](O)CC[C@]5(C)[C@H]4CC[C@]3(C)[C@H]1[C@@H]2C
solubility (mole fraction): 0.00888
